- Target desc: Recombinant human KIF18A (1-467 His-tagged) protein (Homo sapiens (Human))
- Experiment: KIF18A Enzyme Assay: microtubule-stimulated ATPase activity (ADP-Glo)
- Experimental setup: read-out: KIF18A ATPase IC50; 30 nM KIF18A, 30 μg/mL pig microtubules, ATP at Km 75 μM, ADP-Glo luminescence
Parameter: IC50 (nM)

[[record]]
molecule = "Cc1cc(NC(=O)c2ccc([S@](=N)(=O)C3CC3)cc2N2CCC3(CC2)CC3)nc(N2CCC(F)(F)CC2)n1 (single isomer, unassigned) [Example 18-1]"
result_unit = "nM"
measured_number = 64

[[record]]
molecule = "Cc1cc(NC(=O)c2ccc(S(=O)(=O)NCCO)cc2N2CCC3(CC2)CC3)nc(N2CC(F)(F)C2)n1 [Example 17-5]"
result_unit = "nM"
measured_number = 133

[[record]]
molecule = "O=C(Nc1ccnc(OCCC(F)(F)F)c1)c1ccc(NS(=O)(=O)CCO)cc1N1CCC2(CC1)CC2 [Example 11-59]"
result_unit = "nM"
measured_number = 58


a. C[C@@H](CO)S(=O)(=O)Nc1ccc(C(=O)Nc2ccnc(N3CCC(F)(F)CC3)n2)c(N2CCC3(CC2)CC3)c1 [Example 6-26-1]
b. Cc1cc(NC(=O)c2ccc(NS(=O)(=O)CCO)cc2N2CCC3(CC2)CC3)nc(N2CCC[C@@H](C#N)C2)n1 [Example 11-34]
Q: Pick the one with the larger IC50: a vs b Select an item and report its label.
Result: b

A. Cc1cc(NC(=O)c2c(F)cc(NS(=O)(=O)CCO)cc2N2CCC3(CC2)CC3)nc(N2CCC(F)(F)CC2)n1 [Example 11-58]
B. Cc1cc(NC(=O)c2ccc(NS(=O)(=O)CCO)cc2N2CCC3(CC2)CC3)cc(N2CCO[C@H](C)C2)n1 [Example 11-66]
C. Cc1cc(NC(=O)c2ccc(NS(=O)(=O)C3COC3)cc2N2CCC3(CC2)CC3)nc(N2CCC(F)(F)CC2)n1 [Example 6-12]
Q: Please list these molecules in decreasing order of IC50. Answer format: list of labels, ordered as asked.
Result: B, A, C
(B: 148 nM, A: 71 nM, C: 40 nM)

* * *

- Target desc: Recombinant human KIF18A (1-467 His-tagged) protein (Homo sapiens (Human), UniProt Q8NI77)
- Sequence (Q8NI77 1-467): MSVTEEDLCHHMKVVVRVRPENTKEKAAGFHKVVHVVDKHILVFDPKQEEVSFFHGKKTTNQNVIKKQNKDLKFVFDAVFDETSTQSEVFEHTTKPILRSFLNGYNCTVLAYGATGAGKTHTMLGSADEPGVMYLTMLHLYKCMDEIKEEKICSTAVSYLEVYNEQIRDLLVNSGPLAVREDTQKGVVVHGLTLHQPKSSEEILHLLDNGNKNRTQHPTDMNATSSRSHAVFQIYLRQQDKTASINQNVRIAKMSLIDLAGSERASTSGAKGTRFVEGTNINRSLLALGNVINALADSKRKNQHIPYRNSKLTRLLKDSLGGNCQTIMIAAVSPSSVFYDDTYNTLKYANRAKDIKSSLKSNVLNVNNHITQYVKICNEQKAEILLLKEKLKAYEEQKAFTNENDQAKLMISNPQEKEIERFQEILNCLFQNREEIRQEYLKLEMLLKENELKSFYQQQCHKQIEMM
- Sequence (P02550 whole entry partner): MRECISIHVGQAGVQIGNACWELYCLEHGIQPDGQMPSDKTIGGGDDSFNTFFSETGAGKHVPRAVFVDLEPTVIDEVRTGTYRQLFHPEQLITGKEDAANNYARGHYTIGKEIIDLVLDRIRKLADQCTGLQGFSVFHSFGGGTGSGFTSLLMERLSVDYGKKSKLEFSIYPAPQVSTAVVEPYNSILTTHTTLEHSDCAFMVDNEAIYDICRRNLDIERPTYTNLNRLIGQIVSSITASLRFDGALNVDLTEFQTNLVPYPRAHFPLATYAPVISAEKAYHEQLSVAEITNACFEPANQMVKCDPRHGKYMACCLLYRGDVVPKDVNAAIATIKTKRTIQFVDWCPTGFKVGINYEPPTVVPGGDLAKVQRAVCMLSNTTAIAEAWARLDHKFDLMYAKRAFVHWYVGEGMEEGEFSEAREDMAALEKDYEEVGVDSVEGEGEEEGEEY
- Sequence (P02554 whole entry partner): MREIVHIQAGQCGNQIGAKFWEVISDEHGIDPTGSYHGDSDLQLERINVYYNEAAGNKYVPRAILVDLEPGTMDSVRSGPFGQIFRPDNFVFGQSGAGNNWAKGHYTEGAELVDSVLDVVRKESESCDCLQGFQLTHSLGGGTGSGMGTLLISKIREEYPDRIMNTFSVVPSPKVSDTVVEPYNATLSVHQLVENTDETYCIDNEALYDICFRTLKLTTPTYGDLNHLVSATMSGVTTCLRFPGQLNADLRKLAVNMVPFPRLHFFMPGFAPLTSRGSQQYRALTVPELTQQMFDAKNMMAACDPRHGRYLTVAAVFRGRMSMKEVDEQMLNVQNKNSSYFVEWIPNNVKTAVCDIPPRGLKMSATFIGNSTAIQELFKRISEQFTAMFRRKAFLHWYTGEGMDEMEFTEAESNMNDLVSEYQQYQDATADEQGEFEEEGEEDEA
- Experiment: KIF18A Enzyme Assay: microtubule-stimulated ATPase activity (ADP-Glo)
- Experimental setup: read-out: KIF18A ATPase IC50; 30 nM KIF18A, 30 μg/mL pig microtubules, ATP at Km 75 μM, ADP-Glo luminescence
pIC50: −log10 of the molar value.
Parameter: pIC50

[[record]]
structure_as_smiles = "Cc1cc(NC(=O)c2ccc(NS(=O)(=O)CCO)cc2N2CCC3(CC2)CC3)nc(N2CC(C#N)C2)n1"
measured_number = 7.17

[[record]]
structure_as_smiles = "Cc1cc(NC(=O)c2ccc(NS(=O)(=O)C(C)(C)CO)cc2N2CCC3(CC2)CC3)nc(N2CCC(F)(F)CC2)n1"
measured_number = 7.31


I. Cc1cc(NC(=O)c2ccc(NS(=O)(=O)CCO)cc2N2CCC3(CC2)CC3)nc(N2CCC[C@@H](O)C2)n1
II. Cc1cc(NC(=O)c2cc(F)c(NS(=O)(=O)CCO)cc2N2CCC3(CC2)CC3)nc(N2CCC(F)(F)CC2)n1
Q: Which entry shows the lesser value of pIC50 here, I or II ? Mark your selection by writing its label.
Result: I
(I: 7.13, II: 7.47)
